# System: ERK1/2 (Thr202/Tyr204) phosphorylation in KYSE520 cells
# assay.info: Cellular Phospho-p44/42 MAPK (Erk1/2) (Thr202/Tyr204) assay, In-Cell Western
# Type: cell-based
# setup.conditions: Homo sapiens, KYSE-520; KYSE520 cells, 1 hour incubation, pERK signal normalized to GAPDH; single assay or mean of multiple assays; read-out: Biological Example 2 IC50
Quick rule for you: IC50 under 40 nM gets fulfilled, anything else gets not fulfilled.

[
  {
    "compound": "CNc1nccc(Sc2cnc(N3CCC4(CC3)Cc3cc(C#N)ccc3[C@@H]4N)nn2)c1Cl (single isomer, unassigned)",
    "class": "not fulfilled"
  },
  {
    "compound": "N[C@@H]1c2ccccc2CC12CCN(c1ncc(Sc3ccnc4c3C(F)(F)C(=O)N4)nn1)CC2",
    "class": "fulfilled"
  },
  {
    "compound": "C[C@@H]1OCC2(CCN(c3ncc(-c4cccc(Cl)c4Cl)nn3)CC2)[C@@H]1N",
    "class": "not fulfilled"
  },
  {
    "compound": "Nc1nccc(Sc2cnc(N3CCC4(CC3)Cc3cc(Cl)ccc3[C@@H]4N)nn2)c1Cl",
    "class": "not fulfilled"
  },
  {
    "compound": "N[C@@H]1c2ccccc2CC12CCN(c1ncc(Sc3ccnc4[nH]ccc34)nn1)CC2",
    "class": "fulfilled"
  },
  {
    "compound": "N[C@@H]1c2ccccc2CC12CCN(c1ncc(Sc3ccccc3)nn1)CC2",
    "class": "fulfilled"
  },
  {
    "compound": "C[C@@H]1OCC2(CCN(c3ncc(Sc4ccnc5c4ccn5C)nn3)CC2)[C@@H]1N",
    "class": "not fulfilled"
  },
  {
    "compound": "Cc1ccc2c(c1)[C@H](N)C1(CCN(c3ncc(Sc4ccnc(N)c4Cl)nn3)CC1)C2",
    "class": "not fulfilled"
  },
  {
    "compound": "Cc1cccc2c1CC1(CCN(c3ncc(Sc4ccnc(N)c4Cl)nn3)CC1)[C@H]2N",
    "class": "not fulfilled"
  },
  {
    "compound": "Nc1nccc(Sc2cnc(N3CCC4(CC3)Cc3ncsc3[C@H]4N)nn2)c1Cl",
    "class": "fulfilled"
  }
]

**Query** Determine if Nc1nccc(Sc2cnc(N3CCC4(CC3)Cc3cc(Cl)ccc3[C@H]4N)nn2)c1Cl shows IC50 strictly lower than 40 nM.
**Result** fulfilled

**Query** Lab note: IC50 threshold 40 nM. Does this compound come in strictly under it? Cc1cccc2c1CC1(CCN(c3ncc(Sc4ccnc(N)c4Cl)nn3)CC1)[C@@H]2N
**Result** fulfilled

**Query** Regarding N[C@@H]1c2ccccc2CC12CCN(c1ncc(Sc3c[nH]c4ccccc34)nn1)CC2 , kindly confirm whether its IC50 is beneath 40 nM.
**Result** not fulfilled

**Query** Field: below-cutoff. Rule: recorded IC50 strictly less than 40 nM. Subject: C[C@@H]1OCC2(CCN(c3ncc(Sc4cccc(Cl)c4Cl)nn3)CC2)[C@@H]1N
**Result** not fulfilled

**Query** Consider the compound Cc1ccc2c(n1)CC1(CCN(c3ncc(Sc4ccnc(N)c4Cl)nn3)CC1)[C@@H]2N . Is its IC50 strictly less than 40 nM?
**Result** fulfilled

**Query** Decide: IC50 of C[C@@H]1OCC2(CCN(c3ncc(Sc4ccnc(N)c4Cl)nn3)CC2)[C@@H]1N strictly below 40 nM?
**Result** not fulfilled

The measured values listed here are drawn from patent US11634417B2.
